Compiled IC50 measurements on 5-hydroxytryptamine receptor 6 (Homo sapiens) taken from the literature.

Param readout = IC50; param system = 5-hydroxytryptamine receptor 6 (Homo sapiens); param query = CSc1nc2c3ccccc3ccn2c(=N)c1S(=O)(=O)c1ccccc1 ; response: value
0.05 to 0.1 µM

Param readout = IC50; param system = 5-hydroxytryptamine receptor 6 (Homo sapiens); param query = CSc1nc2ccccn2c(=N)c1S(=O)(=O)c1ccc(Cl)cc1 ; response: value
< 0.02 µM

Param readout = IC50; param system = 5-hydroxytryptamine receptor 6 (Homo sapiens); param query = Cc1ncccc1Oc1ccc(NC(=O)c2c[nH]c3ccc(I)cc23)cn1 ; response: value
> 1 µM

Param readout = IC50; param system = 5-hydroxytryptamine receptor 6 (Homo sapiens); param query = CSc1nc2ccc(Br)cn2c(=N)c1S(=O)(=O)c1ccccc1 ; response: value
< 0.02 µM

Param readout = IC50; param system = 5-hydroxytryptamine receptor 6 (Homo sapiens); param query = CSc1nc2c(OCc3ccccc3)cccn2c(=N)c1S(=O)(=O)c1ccccc1 ; response: value
0.1 to 1 µM

Param readout = IC50; param system = 5-hydroxytryptamine receptor 6 (Homo sapiens); param query = COC(=O)c1ccc2nc(SC)c(S(=O)(=O)c3ccccc3)c(=N)n2c1 ; response: value
0.1 to 1 µM

Param readout = IC50; param system = 5-hydroxytryptamine receptor 6 (Homo sapiens); param query = CSc1nc2ccc(C)cn2c(=N)c1S(=O)(=O)c1ccccc1 ; response: value
< 0.02 µM

Param readout = IC50; param system = 5-hydroxytryptamine receptor 6 (Homo sapiens); param query = CSc1nc2ccccn2c(=NC(C)=O)c1S(=O)(=O)c1ccccc1 ; response: value
0.05 to 0.1 µM

Param readout = IC50; param system = 5-hydroxytryptamine receptor 6 (Homo sapiens); param query = COc1ccc2cccc(CCNS(=O)(=O)c3ccc(OC)c(N4CCN(C)CC4)c3)c2c1 ; response: value
0.0005 µM

---

Compiled pIC50 measurements on 5-hydroxytryptamine receptor 6 (Homo sapiens) taken from the literature.
pIC50: −log10 of the molar value.

Tell me the measured pIC50 of CSc1nc2ccccn2c(=O)c1S(=O)(=O)c1ccccc1 , please.
7.00 to 7.30

Tell me the measured pIC50 of COc1ccc(S(=O)(=O)NCCc2ccc(OC)c3ccccc23)cc1N1CCN(C)CC1 , please.
8.59

Tell me the measured pIC50 of CSc1nc2c(C)cc(Br)cn2c(=N)c1S(=O)(=O)c1ccccc1 , please.
> 7.70

Tell me the measured pIC50 of COc1ccc(S(=O)(=O)NCC2(c3cccc4cc(F)ccc34)CC2)cc1N1CCNCC1 , please.
7.80

Tell me the measured pIC50 of COc1ccc2cccc(C3(CNS(=O)(=O)c4ccc(OC)c(N5CCNCC5)c4)CC3)c2c1 , please.
8.30

Tell me the measured pIC50 of CSc1nc2ccc(C(N)=O)cn2c(=N)c1S(=O)(=O)c1ccccc1 , please.
> 7.70

Tell me the measured pIC50 of N=c1c(S(=O)(=O)c2ccccc2)c(NCCO)nc2ccccn12 , please.
> 7.70

Tell me the measured pIC50 of CSc1nc2cc(C)ccn2c(=N)c1S(=O)(=O)c1ccccc1 , please.
> 7.70

Tell me the measured pIC50 of COc1ccc2[nH]cc(CCNC(=O)c3cc(=O)cco3)c2c1 , please.
< 5.00
